Tested on: 786-0
Experiment Notes: NCI tumour cell line growth inhibition, 48 h
Activity calls are given as the source filed them. Cut-off read from the data, not from the text of the source: active = GI50 up to about 1.1 µM and inactive = higher.
Items are presented alongside their recorded GI50.
Measured Parameter: GI50

INSERT INTO measurements (molecule, observed_result) VALUES
  ('C=Cc1cnc([N+](=O)[O-])n1C', '> 100 µM (inactive)'),
  ('CN(C)CCCNc1c2ccccc2[n+]([O-])c2ccccc12', '40.6 µM (inactive)'),
  ('NC(=O)CN1CCN(c2nc(N3CCCC3)c3nc(Cl)c(NCc4ccccc4)nc3n2)CC1', '8.89 µM (inactive)'),
  ('COC(=O)C(CC(=O)Nc1ccc(Cl)c(Cl)c1)C(=O)C(=O)NC1C2CC3CC(C2)CC1C3 (centres undefined)', '> 100 µM (inactive)'),
  ('COc1ccc(/N=N/C(=N/NC(=O)c2cc(Cl)ccc2C(=O)c2ccccc2)c2ccc(N(CCC#N)CCC#N)cc2C)cc1', '18.5 µM (inactive)'),
  ('Cc1cc(OP2(=O)NCc3ccncc3O2)ccc1Cl (centres undefined)', '> 100 µM (inactive)'),
  ('CC(C)COC(=O)c1ccc(/N=C\c2ccc(/C=N/c3ccc(C(=O)OCC(C)C)cc3)cc2)cc1', '> 100 µM (inactive)'),
  ('O=C1CCC(=O)C(C(=O)CCC(=O)Nc2cccc(Cl)c2)C1 (centres undefined)', '> 100 µM (inactive)'),
  ('O=C1Cc2ccccc2N1/N=C\c1ccc(O)cc1', '> 100 µM (inactive)'),
  ('CC(C)=CCC[C@@H](C)C1=C(Nc2ccccc2F)C(=O)C(C)=C(O)C1=O', '5.65 µM (inactive)'),
  ('CSc1c(C#N)c(O)n(-c2ccc(C)cc2)c(=O)c1C(C)=O', '> 100 µM (inactive)'),
  ('Cc1cnc2nc(-c3ccc4ccccc4c3)cc(O)c2c1', '0.61 µM (active)'),
  ('COC(=O)Cc1c([C@H]2[C@H](CC(=O)OC)c3ccccc3N2C(=O)C(F)(F)F)[nH]c2ccccc12', '> 100 µM (inactive)'),
  ('O=c1c2ccccc2nc(-c2ccc(Br)cc2)n1NC1OC(CO)C(O)C(O)C1O (centres undefined)', '> 100 µM (inactive)');

----------
Test system: M14
Experiment Notes: NCI tumour cell line growth inhibition, 48 h
The source made the active and inactive calls. Rule as the data show it: active = GI50 up to about 1.1 µM and inactive = higher. Where a SMILES comes first, the peptide text is derived from it. The star is where a group is joined. Cbz = O=C(OCc1ccccc1)*
Measured Parameter: GI50

INSERT INTO assay_data (compound, observed_result) VALUES
  ('CCOC(=O)c1csc(NC(=O)CCN2CCCCC2)n1', '> 100 µM (inactive)'),
  ('Cc1nc2ccc(S(=O)(=O)Nc3nccs3)cc2c(=O)n1NS(=O)(=O)c1nccs1', '> 100 µM (inactive)'),
  ('CC(C)COC(=O)c1ccc(/N=C\c2ccc(/C=N/c3ccc(C(=O)OCC(C)C)cc3)cc2)cc1', '> 100 µM (inactive)'),
  ('C=C1CCC2[C@@H](CCC3[C@]2(C)CCC[C@]3(C)C(=O)OC)C1CCO (stereo not given in full)', '13.6 µM (inactive)'),
  ('COc1ccc(C(=O)N2CCN(c3ccc4c(c3)OCC(=O)N4)CC2)cc1OC', '> 100 µM (inactive)'),
  ('C/C(CC/C(C)=N/O)=N\O', '> 100 µM (inactive)'),
  ('O=C(O)C1(Cc2ccc3c(c2)CCC3)Cc2cc3c(cc2C1)CCC3', '> 100 µM (inactive)'),
  ('CN1CCN(C2=C(Cl)C3(OCCS3)C(F)(F)C2(F)F)CC1 (stereo not given)', '> 100 µM (inactive)'),
  ('CCCOP1(=O)C=C(O)C(Cl)=C(C)C1 (stereo not given)', '> 100 µM (inactive)'),
  ('C/C=C/C1=C(Cl)C(=O)[C@@H](Cl)[C@@]1(O)C(=O)OC [(+)-CRYPTOSPORIPSIN]', '3.13 µM (inactive)'),
  ('O=C(O)c1oc(C(=O)O)c(C(=O)O)c1C(=O)O', '> 100 µM (inactive)'),
  ('CCOC(=O)C(CC(=O)OC)NC(=O)C(CC(=O)OC)NC(=O)C(CC(=O)OC)NC(=O)C(CC(=O)OC)NC(=O)OCc1ccccc1 (stereo not given) (Cbz-D(OMe)D(OMe)D(OMe)D(OMe)-OEt; configuration not given here)', '> 100 µM (inactive)'),
  ('COc1ccc(-c2csc3c2[N+]2(C)C=CC=C2C3N2CCCC2)cc1 (stereo not given)', '29.8 µM (inactive)'),
  ('Cn1c(=O)c2c(nc3n2CC(=O)N3CCCCl)n(C)c1=O', '> 100 µM (inactive)'),
  ('CCCOC1OC(CS(=O)(=O)O)C(O)C(O)C1O (stereo not given)', '> 100 µM (inactive)'),
  ('COC(=O)C1(C(=O)OC)N=C(C)OC1c1ccccc1O (stereo not given)', '> 100 µM (inactive)'),
  ('Cc1c(/C=N/N=C/c2[nH]c(C(=O)OC(C)(C)C)c(C)c2C)[nH]c(C(=O)OC(C)(C)C)c1C', '> 100 µM (inactive)'),
  ('CCOc1cc2c(cc1O)CC[C@@H]1[C@@H]2CC[C@]2(C)C(N)CC[C@@H]12 (stereo not given in full)', '4.05 µM (inactive)'),
  ('CS(=O)(=O)c1n[nH]c2nc(O)nc(O)c12', '> 10 µM (inactive)'),
  ('C#CCN(Cc1ccc2nc(-c3ccccc3)c(Cl)nc2c1)c1cc(OC)c(OC)c(OC)c1', '> 100 µM (inactive)'),
  ('BrP(NC1CCCCCC1)(c1ccccc1)(c1ccccc1)c1ccccc1', '12.4 µM (inactive)'),
  ('O=CNCNCCO', '> 100 µM (inactive)'),
  ('Cc1cccc(C)c1NC(=S)NC=C1C(=O)c2ccccc2C1=O', '17.5 µM (inactive)'),
  ('CC(C(=O)NCCNC(=O)CCC(=O)N(C)O)C(=O)NCCNC(=O)CCC(=O)N(C)O', '> 100 µM (inactive)'),
  ('CCOC(=O)c1oc2c(OC)ccc3c2c1CCC3', '> 100 µM (inactive)');

----------
System: KM12
Experiment Notes: NCI tumour cell line growth inhibition, 48 h
Active and inactive are the calls of the source. Cut-off read from the data, not from the text of the source: active = GI50 up to about 1.1 µM and inactive = higher.
Items are presented alongside their recorded GI50.
Measured Parameter: GI50

INSERT INTO measurements (compound, target_system, observed_result) VALUES
  ('COC(=O)/C=C(\C)CC/C=C(\C)CCC1OC1(C)C (stereo not given)', 'KM12', '9.48 µM (inactive)'),
  ('C=C(NC(=O)C(=C)NC(=O)c1ccc2c(n1)-c1coc(n1)C(=C)NC(=O)C(=C)NC(=O)c1nc(oc1C)C(=C)NC(=O)C(C(C)(C)O)NC(=O)C(=C)NC(=O)c1coc(n1)/C(=C/C)NC(=O)[C@H]([C@@H](C)O)NC(=O)c1csc-2n1)C(N)=O (stereo not given in full)', 'KM12', '66.7 µM (inactive)'),
  ('[N-]=[N+]=Nc1cc(=O)n(-c2ccccc2)c(=O)n1-c1ccccc1', 'KM12', '> 100 µM (inactive)'),
  ('COC(=O)c1ccc(NC(=O)c2cc(OC)c(OC)c(OC)c2)cc1', 'KM12', '1.02 µM (active)'),
  ('C1CN2N3CCCC23C1 (stereo not given)', 'KM12', '> 100 µM (inactive)');

----------
System: HL-60
Experiment Notes: NCI tumour cell line growth inhibition, 48 h
Calls of active or inactive are those of the source. Rule as the data show it: active = GI50 up to about 1.1 µM and inactive = higher.
Measured Parameter: GI50

INSERT INTO measurements (compound, observed_result) VALUES
  ('O=C(N[C@@H]1C=CCC[C@@H]1c1ccccc1)OCc1ccccc1', '11.6 µM (inactive)'),
  ('C=C1CC(C)(COc2ccc3c(C)c(C)c(=O)oc3c2C)OC1=O (centres undefined)', '0.19 µM (active)'),
  ('Cc1ccc2nc3c(=O)[nH]c(=O)nc-3n(C)c2c1C', '> 100 µM (inactive)'),
  ('c1ccc2c(c1)nnn2CNc1ccc(N2CCOCC2)cc1', '33.3 µM (inactive)');

----------
Tested on: HOP-92
Experiment Notes: NCI tumour cell line growth inhibition, 48 h
Calls of active or inactive are those of the source. Cut-off read from the data, not from the text of the source: active = GI50 up to about 1.1 µM and inactive = higher.
Measured Parameter: GI50

INSERT INTO assay_data (molecule, observed_result) VALUES
  ('CCCCCCCC(=O)OCC1OC(n2cc(F)c(=O)[nH]c2=O)C(NC(=O)OCc2ccccc2)C(OC(=O)CCCCCCC)C1O (stereo not given)', '23.2 µM (inactive)'),
  ('O=C(O)CC(Cc1ccccc1Cl)C(=O)O (stereo not given)', '> 100 µM (inactive)'),
  ('CN(C)/N=C(/c1nc2ccc(Cl)cc2nc1O)C(O)c1ccc(C(O)/C(=N\N(C)C)c2nc3ccc(Cl)cc3nc2O)cc1 (stereo not given)', '81.7 µM (inactive)'),
  ('CN(C)CC1CCCC1=O (stereo not given)', '0.973 µM (active)'),
  ('Cc1c(/C=N/N=C/c2[nH]c(C(=O)OC(C)(C)C)c(C)c2C)[nH]c(C(=O)OC(C)(C)C)c1C', '67.8 µM (inactive)');

Data provenance: ChEMBL document CHEMBL1201862
